TESTED_SYSTEM: Mas-related G-protein coupled receptor member X1 (Homo sapiens)
TEST_METHOD_NOTES: MrgX1 activation via calcium signaling – HEK293 cells, Fluo-4 calcium flux, primary screen (AID 588627)
MEASUREMENT_SETUP: Fluo-4 calcium fluorescence, agonist mode, at 10 µM
Among all 310,000 compounds or so, about 1,400 (0.45%) were called active.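 How the source made its calls: active means calcium response B-score plate-corrected fluorescence ratio at least 3 library SD, with starting fluorescence B-score inside 5 SD; inactive means the rest.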 This excerpt belongs to a sample that is enriched for actives.
Labels: active, inactive

# COMPOUND, GROUP_LABEL
measured = [
    ("CCCc1[nH]nc2c1C(c1ccc(OC(=O)c3ccco3)cc1)C(C#N)=C(N)O2 (stereo unspecified)", "inactive"),
    ("C=CCNC(=S)NNC(=O)c1cc(Cl)ccc1OC", "inactive"),
    ("Cc1cc(C(=O)NNC(=S)Nc2ccccc2C)cs1", "inactive"),
    ("COc1ccc(Cl)cc1C(=O)NNC(=S)NC(=O)/C=C/c1ccco1", "active"),
    ("O=C(/C=C/c1ccc(Cl)c([N+](=O)[O-])c1)c1ccc(O)cc1", "inactive"),
    ("CN(C)/N=C/c1cc(Cl)cc([N+](=O)[O-])c1O", "inactive"),
    ("CCCc1[nH]nc2c1C(C1CC=CCC1)C(C#N)=C(N)O2 (stereo unspecified)", "inactive"),
    ("CCCc1[nH]nc2c1C(c1ccc(Br)s1)C(C#N)=C(N)O2 (stereo unspecified)", "active"),
    ("CCN(CC)C(=O)CSC(Nc1cccc(F)c1)=C(C#N)C#N", "active"),
    ("CCn1c(SCC(=O)Nc2ccc(C)cc2)nc2nc3c(cc2c1=O)CCCC3", "inactive"),
    ("NC1=NC(=O)C2(COC(c3ccccc3Cl)OC2)S1 (stereo unspecified)", "inactive"),
]
